test: Clinical pharmacokinetics in patients with GIST (noncompartmental); type: in vivo, human; conditions: human, plasma; 30 mg QOD oral, fed; steady state (Cycle 1 Day 27); mean (SD); read-out: Vz/F
Value Type: Vd/F (L)
Respond numerically; units are L and should not be typed.

Identify Vd/F associated with the compound Cc1ccc(C(=O)Nc2ccc(CN3CCN(C)CC3)c(C(F)(F)F)c2)cc1C#Cc1cnc2[nH]ncc2c1
2650

====

assay: Clinical pharmacokinetics in patients with GIST (noncompartmental); type: in vivo, human; details: human, plasma; 20 mg QOD oral, fed; steady state (Cycle 1 Day 27); mean (SD)
Value Type: Cmax (ng/mL)
Respond numerically; units are ng/mL and should not be typed.

Identify Cmax associated with the compound Cc1ccc(C(=O)Nc2ccc(CN3CCN(C)CC3)c(C(F)(F)F)c2)cc1C#Cc1cnc2[nH]ncc2c1
9.18

====

assay: Clinical pharmacokinetics in patients with GIST (noncompartmental); assay type: in vivo, human; conditions: human, plasma; 30 mg QOD oral, fed; steady state (Cycle 1 Day 27); mean (SD)
Value Type: Cmax

Identify Cmax associated with the compound Cc1ccc(C(=O)Nc2ccc(CN3CCN(C)CC3)c(C(F)(F)F)c2)cc1C#Cc1cnc2[nH]ncc2c1
12.5 ng/mL

====

assay: Clinical pharmacokinetics in patients with GIST (noncompartmental); assay type: in vivo, human; conditions: human, plasma; 50 mg QOD oral, fed; steady state (Cycle 1 Day 27); mean (SD)
Value Type: AUC(0-t) (ng·h/mL)
Respond numerically; units are ng·h/mL and should not be typed.

Identify AUC(0-t) associated with the compound Cc1ccc(C(=O)Nc2ccc(CN3CCN(C)CC3)c(C(F)(F)F)c2)cc1C#Cc1cnc2[nH]ncc2c1 [Olverembatinib]
518

====

test: Clinical pharmacokinetics in patients with GIST (noncompartmental); assay type: in vivo, human; conditions: human, plasma; 50 mg QOD oral, fed; steady state (Cycle 1 Day 27); mean (SD); read-out: T1/2 (converted)
Value Type: half-life (h)
Respond numerically; units are h and should not be typed.

Identify half-life associated with the compound Cc1ccc(C(=O)Nc2ccc(CN3CCN(C)CC3)c(C(F)(F)F)c2)cc1C#Cc1cnc2[nH]ncc2c1
19.5

====

assay: Clinical pharmacokinetics in patients with GIST (noncompartmental); type: in vivo, human; conditions: human, plasma; 30 mg QOD oral, fed; steady state (Cycle 1 Day 27); mean (SD)
Value Type: AUC(0-t) (ng·h/mL)
Respond numerically; units are ng·h/mL and should not be typed.

Identify AUC(0-t) associated with the compound Cc1ccc(C(=O)Nc2ccc(CN3CCN(C)CC3)c(C(F)(F)F)c2)cc1C#Cc1cnc2[nH]ncc2c1 [Olverembatinib]
307

====

test: Clinical pharmacokinetics in patients with GIST (noncompartmental); format: in vivo, human; conditions: human, plasma; 30 mg QOD oral, fed; steady state (Cycle 1 Day 27); median (range)
Value Type: Tmax
Write the quantity with the unit trailing the number.

Identify Tmax associated with the compound Cc1ccc(C(=O)Nc2ccc(CN3CCN(C)CC3)c(C(F)(F)F)c2)cc1C#Cc1cnc2[nH]ncc2c1
7 h

====

molecular target: VEGFR2 (Homo sapiens)
Sequence (P35968 20-1356): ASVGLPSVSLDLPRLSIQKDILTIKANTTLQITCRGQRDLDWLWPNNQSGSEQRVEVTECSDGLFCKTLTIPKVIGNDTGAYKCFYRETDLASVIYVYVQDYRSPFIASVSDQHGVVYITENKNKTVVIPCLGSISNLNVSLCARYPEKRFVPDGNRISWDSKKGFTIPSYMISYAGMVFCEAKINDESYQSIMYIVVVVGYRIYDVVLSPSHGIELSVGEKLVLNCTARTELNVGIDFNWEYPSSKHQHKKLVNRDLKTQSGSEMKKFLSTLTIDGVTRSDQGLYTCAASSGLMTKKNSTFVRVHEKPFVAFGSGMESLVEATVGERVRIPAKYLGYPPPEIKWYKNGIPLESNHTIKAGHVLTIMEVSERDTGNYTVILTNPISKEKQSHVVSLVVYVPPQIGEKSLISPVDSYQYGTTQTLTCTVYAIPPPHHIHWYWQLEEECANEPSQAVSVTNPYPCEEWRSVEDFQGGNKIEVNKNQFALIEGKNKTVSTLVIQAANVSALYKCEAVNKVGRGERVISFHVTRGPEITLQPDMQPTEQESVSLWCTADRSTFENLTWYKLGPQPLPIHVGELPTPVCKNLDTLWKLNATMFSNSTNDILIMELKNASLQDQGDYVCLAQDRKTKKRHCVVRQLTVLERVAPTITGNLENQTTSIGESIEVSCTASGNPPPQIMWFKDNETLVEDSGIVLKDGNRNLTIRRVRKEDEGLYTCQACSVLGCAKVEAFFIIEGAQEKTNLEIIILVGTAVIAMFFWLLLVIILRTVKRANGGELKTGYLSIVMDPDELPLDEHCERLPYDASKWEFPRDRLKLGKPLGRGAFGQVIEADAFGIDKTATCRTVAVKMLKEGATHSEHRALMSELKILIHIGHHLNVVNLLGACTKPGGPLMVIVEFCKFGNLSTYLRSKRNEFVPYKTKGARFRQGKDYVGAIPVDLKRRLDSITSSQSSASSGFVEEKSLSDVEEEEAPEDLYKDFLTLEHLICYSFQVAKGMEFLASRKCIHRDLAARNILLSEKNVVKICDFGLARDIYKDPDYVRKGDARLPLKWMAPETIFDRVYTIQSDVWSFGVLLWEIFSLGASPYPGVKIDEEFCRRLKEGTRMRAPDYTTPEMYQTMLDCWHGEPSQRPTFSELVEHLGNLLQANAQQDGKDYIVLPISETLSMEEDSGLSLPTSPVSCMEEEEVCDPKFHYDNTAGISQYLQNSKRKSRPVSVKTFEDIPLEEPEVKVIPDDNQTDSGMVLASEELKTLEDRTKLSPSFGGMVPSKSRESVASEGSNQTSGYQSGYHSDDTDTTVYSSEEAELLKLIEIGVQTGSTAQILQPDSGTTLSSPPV
pIC50: −log10 of the molar value.
Value Type: pIC50

Write pIC50 of Cc1ccc(C(=O)Nc2ccc(CN3CCN(C)CC3)c(C(F)(F)F)c2)cc1C#Cc1cnc2[nH]ncc2c1 ; system used: VEGFR2 (Homo sapiens)
> 9.22
